Consider the following compounds and their measured solubility readings.
Assay: Solubility of the compound in PBS buffer at pH 7.4
Assay type: physicochemical

- Given Smiles: "CCN(CC)c1ccc2cc(C(=O)/C=C/c3ccc(N(C)CCOCCOCCOCCOC)cc3)c(=O)oc2c1"
  Inequality Operator: "="
  solubility [µg/mL]: 26
- Given Smiles: "COCCOCCOCCOCCN(CCOCCOCCOCCOC)c1ccc(/C=C/C(=O)c2cc3ccc(OCCOCCOCCOC)cc3oc2=O)cc1"
  Inequality Operator: ">"
  solubility [µg/mL]: 10000
- Given Smiles: "CCN(CC)c1ccc2cc(C(=O)/C=C/c3ccc(N(CCOCCOCCOCCOC)CCOCCOCCOCCOC)cc3)c(=O)oc2c1"
  Inequality Operator: "="
  solubility [µg/mL]: 750
- Given Smiles: "CCN(CC)c1ccc(/C=C/C(=O)c2cc3ccc(OCCOCCOCCOC)cc3oc2=O)cc1"
  Inequality Operator: "="
  solubility [µg/mL]: 1.1
- Given Smiles: "COCCOCCOCCOCCN(C)c1ccc(/C=C/C(=O)c2cc3ccc(OCCOCCOCCOC)cc3oc2=O)cc1"
  Inequality Operator: "="
  solubility [µg/mL]: 700
